Test system: Bacillus subtilis
assay_details: cleaved RNA product abundance (RNA/gDNA barcode ratio) relative to median wild-type variant (ratio to wild type); higher = more accumulation of the downstream cleavage product
test_context: experiment (reporter, strain, medium): exp 4a: truncated aprE reporter, strain BJT201 with 2% xylose (RNase J1 expressed); cleavage site: cggR-gapA (positions -7 to +36 mutated)
Classify as follows. Reported cleaved RNA product abundance greater than or equal to 0.2: Met. Reported cleaved RNA product abundance below: Not met.

Use these answered entries as a reference point.
INSERT INTO results (seq_string, system_name, class_label) VALUES
  ('ACAGACGAAGGAGCCGCAAAGACGTTATTAAGGGATAAATAATCCCTCAATATAAATATCTCTCACTTATTTAAA', 'Bacillus subtilis', 'Met'),
  ('ACAGACGAAGGAGCCGCAAAGAAGTTATTAAGGGATTAATAATCCCCCAATATAAATATCTCTCACTTATTTAAA', 'Bacillus subtilis', 'Met'),
  ('ACAGACGAAGGAGCCGCAAAGAAGTTATTAAGGTATGAATAAACCCTCAATATAAATATCTCTCACTTATTTAAA', 'Bacillus subtilis', 'Not met'),
  ('ACAGACGAAGGAGCCGCAAAGAAGTTATTAAGGGATGAATAATCCCTTCAATATAAATATCTCTCACTTATTTAA', 'Bacillus subtilis', 'Met'),
  ('ACAGACGAAGGAGCCGCAAAGAAGTTATTAAGGGATGAATAATTCCGCAATATAAATATCTCTCACTTATTTAAA', 'Bacillus subtilis', 'Not met');

Now take the following sequence into account.
(Q) Form field: cleaved RNA product abundance at least 0.2? Entry: `ACAGACGAAGGAGCCGCAAAGAAGTTATTAAGAGATGAATAATCCCTCAATAAAAATATCTCTCACTTATTTAAA`
(A) Not met

###

Tested on: Bacillus subtilis
assay_details: cleaved RNA product abundance (RNA/gDNA barcode ratio) relative to median wild-type variant (ratio to wild type); higher = more accumulation of the downstream cleavage product
test_context: experiment (reporter, strain, medium): exp 4a: truncated aprE reporter, strain BJT201 with 2% xylose (RNase J1 expressed); cleavage site: cggR-gapA (positions -7 to +36 mutated)
Classify as follows. Reported cleaved RNA product abundance greater than or equal to 0.3: Y. Reported cleaved RNA product abundance below: N.

Use these answered entries as a reference point.
INSERT INTO results (seq_string, system_name, class_label) VALUES
  ('ACAGACGAAGGAGCCGCAAAGAAGTTATTAACGGATGAATAATCCCTCTATATAAATATCTCTCACTTATTTAAA', 'Bacillus subtilis', 'N'),
  ('ACAGACGAAGGAGCCGCAAAGAAGTTATTAAGGGAAGAATAGTCCCTCAATATAAATATCTCTCACTTATTTAAA', 'Bacillus subtilis', 'Y');

(Q) Form field: cleaved RNA product abundance at least 0.3? Entry: `ACAGACGAAGGAGCCGCAAAGAAGTTATTAAGGGATGAATAATCCTTCAATGTAAATATCTCTCACTTATTTAAA`
(A) N

(Q) Form field: cleaved RNA product abundance at least 0.3? Entry: `ACAGACGAAGGAGCCGCAAAGAAGTAATTAAGAGATAAATAATCCCTCAATATAAATATCTCTCACTTATTTAAA`
(A) N

(Q) Form field: cleaved RNA product abundance at least 0.3? Entry: `ACAGACGAAGGAGCCGCATAGAAGTTATCAAGGGATGAATAATCCCTCAATATAAATATCTCTCACTTATTTAAA`
(A) Y

(Q) Form field: cleaved RNA product abundance at least 0.3? Entry: `ACAGACGAAGGAGCCGCAAAGAAGTTATTAAAGGATGAATAATCCCTCAATATAAATATCTCTCACTTATTTAAA`
(A) N

(Q) Form field: cleaved RNA product abundance at least 0.3? Entry: `ACAGACGAAGGAGCCGCAAAGAAGTTATAAAGGGCTGAATAATCCCTCAATATAAATATCTCTCACTTATTTAAA`
(A) N
